- ASSAY SYSTEM: hnRNP A1 internal_change (UniProt P09651)
- Sequence (P09651 other isoform, or with tags, fused parts or gaps): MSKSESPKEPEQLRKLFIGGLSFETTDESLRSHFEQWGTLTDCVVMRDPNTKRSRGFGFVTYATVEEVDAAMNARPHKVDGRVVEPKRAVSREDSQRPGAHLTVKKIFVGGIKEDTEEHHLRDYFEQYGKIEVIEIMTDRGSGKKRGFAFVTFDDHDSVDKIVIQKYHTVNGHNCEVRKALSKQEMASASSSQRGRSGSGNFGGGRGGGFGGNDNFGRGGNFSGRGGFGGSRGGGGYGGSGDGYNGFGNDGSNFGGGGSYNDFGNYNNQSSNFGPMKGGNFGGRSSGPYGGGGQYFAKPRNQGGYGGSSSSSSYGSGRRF
- TEST DETAILS: SPR
- CONDITION DESCRIPTION: hnRNP A1 immobilized; very hard to regenerate; called non-special binding; phosphorothioate at all 30 linkages (stereorandom); SPR: 10 mM PBS (138 mM NaCl, 2.7 mM KCl, 10 mM Na2HPO4, 1.76 mM KH2PO4, 0.05% Tween-20), pH 7.4, 25 C, aptamer 0.39-50 nM; BLI: biotinylated aptamer on SA …
PROPERTY: pKd
Entry type: numeric. Quantity: pKd, the -log10 of concentration in molar units.

Task item: Entry TGTGGCGAGGTAGGTGGGGTGTGTGTGTATC [WW-20] : reported pKd = ?
Reply: 10.85

Each recorded value in this set is attributed to paper PMC8273494.
